// data source = paper PMC5986654

target_of_assay: pCAF (Homo sapiens, UniProt Q92831)
Sequence (Q92831 whole entry): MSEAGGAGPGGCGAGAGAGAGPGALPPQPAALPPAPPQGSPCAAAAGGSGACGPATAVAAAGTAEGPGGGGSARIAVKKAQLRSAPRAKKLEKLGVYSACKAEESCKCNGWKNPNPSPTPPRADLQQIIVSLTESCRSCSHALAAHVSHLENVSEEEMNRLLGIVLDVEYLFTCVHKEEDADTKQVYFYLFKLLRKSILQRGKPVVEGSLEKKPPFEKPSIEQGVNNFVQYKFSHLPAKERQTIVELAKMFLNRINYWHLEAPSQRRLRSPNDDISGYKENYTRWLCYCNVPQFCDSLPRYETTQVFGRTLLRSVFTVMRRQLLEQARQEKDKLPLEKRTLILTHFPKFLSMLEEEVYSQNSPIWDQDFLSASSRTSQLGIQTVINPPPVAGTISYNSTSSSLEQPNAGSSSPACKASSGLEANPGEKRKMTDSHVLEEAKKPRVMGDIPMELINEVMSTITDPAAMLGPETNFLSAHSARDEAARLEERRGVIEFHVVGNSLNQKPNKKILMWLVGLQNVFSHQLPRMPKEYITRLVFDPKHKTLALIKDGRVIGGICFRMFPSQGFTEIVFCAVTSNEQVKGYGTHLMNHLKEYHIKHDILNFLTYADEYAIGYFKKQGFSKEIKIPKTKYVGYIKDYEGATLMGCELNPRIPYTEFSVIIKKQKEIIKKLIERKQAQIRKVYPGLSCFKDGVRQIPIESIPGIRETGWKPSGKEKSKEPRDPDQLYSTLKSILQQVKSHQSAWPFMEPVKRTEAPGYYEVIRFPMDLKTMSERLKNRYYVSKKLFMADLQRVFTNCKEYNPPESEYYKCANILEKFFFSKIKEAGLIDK
reported_property: pIC50
The value called pIC50 is obtained by taking minus log10 of the concentration in mol/L.

*Q* Find the measured pIC50: item CCCCCCCCCCCCCCCc1cccc(O)c1C(=O)O , target or system pCAF (Homo sapiens, UniProt Q92831).
*A* 4.41

###

target_of_assay: p300 (Homo sapiens, UniProt Q09472)
reported_property: pIC50
Scale note: pIC50 = -log10(concentration in M).

*Q* Given O=C1/C(=C/c2cccc(Br)c2)CN(Cc2ccccc2)C/C1=C\c1cccc(Br)c1 [MC2884] , state its recorded pIC50.
*A* 6.34

###

target_of_assay: KAT5 (Homo sapiens)
Sequence (Q92993 whole entry): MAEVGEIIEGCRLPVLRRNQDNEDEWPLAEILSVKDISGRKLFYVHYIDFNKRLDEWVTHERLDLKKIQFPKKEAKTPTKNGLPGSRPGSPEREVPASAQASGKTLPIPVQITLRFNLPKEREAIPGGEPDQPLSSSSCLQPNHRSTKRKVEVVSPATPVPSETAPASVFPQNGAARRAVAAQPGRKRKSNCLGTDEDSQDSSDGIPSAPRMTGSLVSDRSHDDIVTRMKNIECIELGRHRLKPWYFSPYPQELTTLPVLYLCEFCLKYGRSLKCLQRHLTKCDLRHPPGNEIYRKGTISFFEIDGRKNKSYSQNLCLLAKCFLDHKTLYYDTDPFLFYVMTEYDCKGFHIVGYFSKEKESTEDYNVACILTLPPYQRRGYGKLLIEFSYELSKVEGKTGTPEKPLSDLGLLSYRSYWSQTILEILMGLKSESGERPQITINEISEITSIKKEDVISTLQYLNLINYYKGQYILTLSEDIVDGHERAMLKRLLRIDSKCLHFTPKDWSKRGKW
test_method_notes: HAT in vitro assay, 10-dose IC50, KAT5
Type: biochemical
study_conditions: substrate Histone H2A, 3 μM Acetyl-CoA; read-out: Compound IC50 KAT5
pIC50 overview
Formally, pIC50 is defined as -log10 of the concentration c, with c in mol/L.

O=C1/C(=C/c2cccc(Br)c2)CN(Cc2ccccc2)C/C1=C\c1cccc(Br)c1 : 6.08

*Q* GET /values?readout=pIC50&item= CC1=NN(c2ccc(C(=O)O)cc2)C(=O)/C1=C\c1ccc(-c2cc(C)c(C)cc2[N+](=O)[O-])o1 [C646, reference compound]
*A* 4.69

###

target_of_assay: CYP1A (Homo sapiens, UniProt P05177)
Sequence (P05177 2-516 limits assumed): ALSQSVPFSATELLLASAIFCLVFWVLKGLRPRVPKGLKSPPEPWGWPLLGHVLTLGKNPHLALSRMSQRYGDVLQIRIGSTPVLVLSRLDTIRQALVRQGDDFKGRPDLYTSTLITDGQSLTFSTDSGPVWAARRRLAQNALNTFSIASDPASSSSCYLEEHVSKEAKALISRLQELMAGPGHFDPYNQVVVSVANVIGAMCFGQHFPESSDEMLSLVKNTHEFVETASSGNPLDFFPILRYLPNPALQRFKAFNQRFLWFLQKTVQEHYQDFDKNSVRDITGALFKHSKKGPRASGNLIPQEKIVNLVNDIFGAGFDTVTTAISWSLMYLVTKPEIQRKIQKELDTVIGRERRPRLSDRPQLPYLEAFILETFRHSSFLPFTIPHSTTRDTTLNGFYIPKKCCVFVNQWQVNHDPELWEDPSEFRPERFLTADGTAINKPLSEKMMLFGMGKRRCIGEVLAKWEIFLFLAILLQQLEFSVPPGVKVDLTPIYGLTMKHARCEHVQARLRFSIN
reported_property: IC50

*Q* // map O=C1/C(=C/c2cccc(Br)c2)CN(Cc2ccccc2)C/C1=C\c1cccc(Br)c1 to recorded IC50 (system: CYP1A (Homo sapiens, UniProt P05177))
*A* > 25 µM

###

target_of_assay: CBP (Homo sapiens, UniProt Q92793)
Sequence (Q92793 whole entry): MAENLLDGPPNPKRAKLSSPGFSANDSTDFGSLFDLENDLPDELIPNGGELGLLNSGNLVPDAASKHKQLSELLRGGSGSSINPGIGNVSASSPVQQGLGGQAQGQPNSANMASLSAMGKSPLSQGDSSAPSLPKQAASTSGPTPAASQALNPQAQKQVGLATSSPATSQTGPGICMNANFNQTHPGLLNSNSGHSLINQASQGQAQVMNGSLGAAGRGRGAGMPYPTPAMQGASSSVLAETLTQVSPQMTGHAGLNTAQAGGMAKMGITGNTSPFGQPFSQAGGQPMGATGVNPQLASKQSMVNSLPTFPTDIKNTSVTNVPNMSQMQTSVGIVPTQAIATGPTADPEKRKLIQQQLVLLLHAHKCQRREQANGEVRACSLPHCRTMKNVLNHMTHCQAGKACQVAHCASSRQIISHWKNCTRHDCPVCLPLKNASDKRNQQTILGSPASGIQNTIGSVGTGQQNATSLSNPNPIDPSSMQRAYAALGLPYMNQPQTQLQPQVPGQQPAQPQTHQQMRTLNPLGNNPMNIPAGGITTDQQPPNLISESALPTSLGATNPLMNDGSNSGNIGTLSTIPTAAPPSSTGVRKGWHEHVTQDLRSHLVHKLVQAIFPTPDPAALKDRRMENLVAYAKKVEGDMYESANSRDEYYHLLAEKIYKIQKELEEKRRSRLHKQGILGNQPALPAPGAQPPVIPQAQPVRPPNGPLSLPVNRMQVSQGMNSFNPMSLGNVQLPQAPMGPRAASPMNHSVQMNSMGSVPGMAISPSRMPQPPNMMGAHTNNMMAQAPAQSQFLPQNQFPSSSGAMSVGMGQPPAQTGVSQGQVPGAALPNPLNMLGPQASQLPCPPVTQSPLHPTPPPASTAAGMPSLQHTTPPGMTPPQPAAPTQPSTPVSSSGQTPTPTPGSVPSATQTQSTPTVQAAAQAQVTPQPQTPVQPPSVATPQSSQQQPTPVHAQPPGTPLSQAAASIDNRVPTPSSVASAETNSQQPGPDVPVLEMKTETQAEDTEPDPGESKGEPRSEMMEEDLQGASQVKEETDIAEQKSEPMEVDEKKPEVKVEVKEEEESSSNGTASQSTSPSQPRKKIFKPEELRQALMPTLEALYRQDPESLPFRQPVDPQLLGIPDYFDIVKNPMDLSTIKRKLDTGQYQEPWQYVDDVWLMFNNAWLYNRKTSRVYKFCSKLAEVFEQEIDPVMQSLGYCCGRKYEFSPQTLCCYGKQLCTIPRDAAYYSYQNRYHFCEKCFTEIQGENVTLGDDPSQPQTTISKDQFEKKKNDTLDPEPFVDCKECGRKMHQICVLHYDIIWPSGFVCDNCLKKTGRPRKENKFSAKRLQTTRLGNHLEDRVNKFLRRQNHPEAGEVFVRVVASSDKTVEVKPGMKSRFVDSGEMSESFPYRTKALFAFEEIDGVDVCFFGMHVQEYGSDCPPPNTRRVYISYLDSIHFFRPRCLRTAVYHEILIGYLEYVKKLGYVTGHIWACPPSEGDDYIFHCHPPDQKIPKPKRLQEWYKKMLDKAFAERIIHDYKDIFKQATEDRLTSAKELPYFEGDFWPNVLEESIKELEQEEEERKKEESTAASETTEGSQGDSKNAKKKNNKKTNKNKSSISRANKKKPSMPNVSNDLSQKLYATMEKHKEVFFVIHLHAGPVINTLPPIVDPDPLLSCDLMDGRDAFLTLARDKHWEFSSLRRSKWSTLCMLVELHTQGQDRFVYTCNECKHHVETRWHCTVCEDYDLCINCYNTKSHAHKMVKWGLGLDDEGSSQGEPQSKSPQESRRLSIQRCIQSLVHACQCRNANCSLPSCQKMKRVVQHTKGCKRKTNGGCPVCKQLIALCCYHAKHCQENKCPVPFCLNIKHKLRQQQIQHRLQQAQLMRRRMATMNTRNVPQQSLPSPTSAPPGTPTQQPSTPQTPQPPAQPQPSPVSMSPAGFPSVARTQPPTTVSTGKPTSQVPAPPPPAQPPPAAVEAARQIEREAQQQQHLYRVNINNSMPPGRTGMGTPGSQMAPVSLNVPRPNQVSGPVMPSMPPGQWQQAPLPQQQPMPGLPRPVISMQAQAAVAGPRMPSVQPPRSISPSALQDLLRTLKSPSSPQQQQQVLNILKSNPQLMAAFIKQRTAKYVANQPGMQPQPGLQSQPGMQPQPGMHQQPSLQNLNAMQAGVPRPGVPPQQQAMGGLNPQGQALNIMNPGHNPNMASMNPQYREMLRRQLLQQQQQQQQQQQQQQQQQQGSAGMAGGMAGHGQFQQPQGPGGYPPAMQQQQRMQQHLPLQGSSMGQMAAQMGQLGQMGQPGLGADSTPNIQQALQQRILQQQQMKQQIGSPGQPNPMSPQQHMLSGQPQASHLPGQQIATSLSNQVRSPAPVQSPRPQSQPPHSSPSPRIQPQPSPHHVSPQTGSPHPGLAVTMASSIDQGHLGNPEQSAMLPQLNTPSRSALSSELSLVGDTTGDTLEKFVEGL
reported_property: pIC50
# pIC50 = -log10(concentration in molar units)

O=C1/C(=C/c2cccc(Br)c2)CN(Cc2ccccc2)C/C1=C\c1cccc(Br)c1 : 5.49

Now take the following molecule into account.
*Q* Reported pIC50 for CBP (Homo sapiens, UniProt Q92793), given CC1=NN(c2ccc(C(=O)O)cc2)C(=O)/C1=C\c1ccc(-c2cc(C)c(C)cc2[N+](=O)[O-])o1 [C646, reference compound] ?
*A* 7.10

###

target_of_assay: CYP3A4 (Homo sapiens, UniProt P08684)
Construct: from tissue; host or cells: human liver microsomes
Sequence (P08684 whole entry): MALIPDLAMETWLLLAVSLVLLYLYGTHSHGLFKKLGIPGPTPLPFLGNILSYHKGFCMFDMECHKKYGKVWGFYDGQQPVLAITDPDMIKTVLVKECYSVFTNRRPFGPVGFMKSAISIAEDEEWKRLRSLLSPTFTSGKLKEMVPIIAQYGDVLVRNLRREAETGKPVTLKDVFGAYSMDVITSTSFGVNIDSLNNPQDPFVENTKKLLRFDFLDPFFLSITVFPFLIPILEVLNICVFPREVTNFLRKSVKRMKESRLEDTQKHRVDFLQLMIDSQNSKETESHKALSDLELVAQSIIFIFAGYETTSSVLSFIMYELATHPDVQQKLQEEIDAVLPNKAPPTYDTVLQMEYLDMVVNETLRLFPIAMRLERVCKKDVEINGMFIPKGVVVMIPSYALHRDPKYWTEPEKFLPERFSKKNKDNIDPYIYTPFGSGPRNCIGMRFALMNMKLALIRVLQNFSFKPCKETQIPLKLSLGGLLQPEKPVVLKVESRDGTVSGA
test_method_notes: Cytochrome P450 inhibition, CYP3A4
Assay type: in vitro ADME
study_conditions: probe midazolam (2.5 µM), human liver microsomes, observed only at 25 μM
Description: This provided a dose of 2 mg free base material/kg when Cytochrome p450 inhibition (5 isoform iC50 administered iv in a 5 mL/kg dosing volume. determination) mouse terminal ip pK study ADME-Tox Cytochrome P450 inhibition of Compound MC2884 was given ip at a dose of 2 mg/kg MC2884 using human liver microsomes as an estimation to a group of 24 normally fed male CD1 mice in a 10 mL/ of in vitro metabolism. kg injection volume. […]
reported_property: inhibition at 5 min, 25 µM (%)
The response must be a number in % with no trailing unit.

*Q* What value of inhibition at 5 min, 25 µM has been recorded for this entry: O=C1/C(=C/c2cccc(Br)c2)CN(Cc2ccccc2)C/C1=C\c1cccc(Br)c1 [MC2884]
*A* 45

###

System: leukemia NB4 cells
test_method_notes: Cell death induction in NB4 cells (FACS, pre-G1)
Type: cell-based, human
study_conditions: 3 μM, 30 h
Each item that follows carries a reported % Cell death NB4 cells.
Reply with just the number (in %).

Consider the reported % Cell death NB4 cells for these compounds:
O=C1C(=Cc2ccccc2Br)CN(Cc2ccccc2)CC1=Cc1ccccc1Br : 30.3
O=C1C(=Cc2cccc(Br)c2)CN(C(=O)c2ccccc2)CC1=Cc1cccc(Br)c1 : 13.2
O=C1C(=Cc2cccc(Br)c2)CSCC1=Cc1cccc(Br)c1 : 52.7
O=C1C(=Cc2cccc(Br)c2)CN(CC(=O)c2ccccc2)CC1=Cc1cccc(Br)c1 : 38
O=C1C(=Cc2ccc(Br)cc2)CN(Cc2ccccc2)CC1=Cc1ccc(Br)cc1 : 8.8

*Q* Request body: readout % Cell death NB4 cells, system leukemia NB4 cells, query O=C1C(=Cc2cccc(Br)c2)CN(CCc2ccccc2)CC1=Cc1cccc(Br)c1 . Return the value.
*A* 62.5

*Q* Can you look up % Cell death NB4 cells on leukemia NB4 cells for CN1CC(=Cc2cccc(Br)c2)C(=O)C(=Cc2cccc(Br)c2)C1 ?
*A* 36

*Q* Quick check: % Cell death NB4 cells on leukemia NB4 cells, item O=C1C(=Cc2cccc(Br)c2)CN(C(=O)CCc2ccccc2)CC1=Cc1cccc(Br)c1 ?
*A* 28.9
